Data origin, for the record: ChEMBL document CHEMBL3779820

Assay: Oral bioavailability in CD1 mouse at 15 mg/kg administered as single dose
Type: ADME, organism-based
Settings: in vivo
MEASURED PARAMETER: bioavailability

Qu. Fill blank: measured bioavailability of the compound Cl.N[C@@H]1C[C@H]1c1ccc(NC(=O)c2cccc(N3CCOC3=O)c2)cc1 (racemic) is ____.
Ans. 55.8%

====

Experiment: Cmax in CD1 mouse at 5 mg/kg, iv administered as single dose
Type: ADME, organism-based
Design: dose 5 mg/kg, route intravenous
Conditions: in vivo
MEASURED PARAMETER: Cmax (µM)
Field format: number, assumed µM, no unit text.

Qu. Requested read-out: Cmax. Entry: Cl.N[C@@H]1C[C@H]1c1ccc(NC(=O)c2cccc(N3CCOC3=O)c2)cc1 (racemic)
Ans. 3.65
